B1: tRNA (parent)
chain: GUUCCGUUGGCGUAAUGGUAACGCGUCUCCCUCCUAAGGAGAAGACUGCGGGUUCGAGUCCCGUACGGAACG

- Variants of: B1
- METHOD DESCRIPTION: yeast fitness relative to wild type (ratio to wild type); higher = fitter; tRNA-Arg(CCU), competitive growth, 37 C, YPD
This sample holds only a part of the variants without activity.
Lab note: compare yeast fitness against 0.6. Equal or greater, write 1. Smaller, write 0.

Solved entries (count: 2):
MUTATION STRING	ASSIGNED CLASS
G23A C29G A57G C66G	0
C5G G18A G25A A42G	0

In plain terms: is recorded yeast fitness at least 0.6 for U7C G18A G41A A42C G50C A70G ? 0

Is reported yeast fitness greater than or equal to 0.6 here: G50C U54A 0

State whether the measured yeast fitness reaches 0.6, counting equality as reaching it, for U2C U19A U26C A45C G52C A70G 0

Quick check, yeast fitness >= 0.6? A37G A40C A43C G67U 0
